assay: Disruption of PP1 holoenzyme (unknown origin) interaction with protein inhibitor 2 assessed as increase in PP1 phosphatase activity by measuring increase in fluorescence using DiFMUP as substrate enzyme preincubated with I2 for ten mins followed by compound treatment for 20 mins followed by substrate addition by fluorescence based analysis; parameters: species or system Homo sapiens
Where a SMILES comes first, the peptide text is derived from it. [ ]: non-standard residue; d: D form.
Observed Property: EC50

Molecule	EC50
CC(C)[C@H](NC(=O)[C@@H](N)CCCNC(=N)N)C(=O)N[C@H](C(=O)N[C@H](Cc1ccccc1)C(=O)O)[C@@H](C)O (H-RVT[dF]-OH)	> 500 µM
CC(C)[C@@H](NC(=O)[C@H](N)CCCNC(=N)N)C(=O)N[C@@H](C(=O)N[C@@H](Cc1ccccc1)C(=O)O)[C@H](C)O (H-[dR][dV][dT]F-OH)	> 500 µM

Attention now shifts to the item below.
response.value for CC(C)[C@H](NC(=O)[C@H](N)CCCNC(=N)N)C(=O)N[C@H](C(=O)N[C@H](Cc1ccccc1)C(=O)O)[C@@H](C)O (H-[dR]VT[dF]-OH) (field: EC50) = > 500 µM
